B1: unnamed (parent)
chain 1: DYMGWMDF
chain 2: MDVVDSLLVNGSNITPPCELGLENETLFCLDQPRPSKEWQPAVQILLYSLIFLLSVLGNTLVITVLIRNKRMRTVTNIFLLSLAVSDLMLCLFCMPFNLIPNLLKDFIFGSAVCKTTTYFMGTSVSVSTFNLVAISLERYGAICKPLQSRVWQTKSHALKVIAATWCLSFTIMTPYPIYSNLVPFTKNNNQTANMCRFLLPNDVMQQSWHTFLLLILFLIPGIVMMVAYGLISLELYQGIKFEASQKKSAKERKPSTTSSGKYEDSDGCYLQKTRPPRKLELRQLSTGSSSRANRIRSNSSAANLMAKKRVIRMLIVIVVLFFLCWMPIFSANAWRAYDTASAERRLSGTPISFILLLSYTSSCVNPIIYCFMNKRFRLGFMATFPCCPNPGPPGARGEVGEEEEGGTTGASLSRFSYSHMSASVPPQ

- Variants of: B1
- procedureDetails: radiolabeled ligand-binding assay (competition with unlabeled CCK-8)
- conditionNotes: upper plateau of the fitted competition curve at the lowest CCK-8 concentration (log [CCK-8] = -12), read off a plot
Returns Satisfied if the recorded percent of parent is greater than or equal to 30 % WT, and Not satisfied otherwise.

| variantAnnotation | cat |
| --- | --- |
| chain 2 F185A | Not satisfied |
| chain 2 K105A | Satisfied |
| chain 2 Y360A | Not satisfied |
| chain 2 T118A | Satisfied |
| chain 2 V125A | Satisfied |
